Molecular target: Estrogen receptor beta (Homo sapiens) (UniProt Q92731)
Sequence (Q92731 whole entry, looked up, the tested form may be a part): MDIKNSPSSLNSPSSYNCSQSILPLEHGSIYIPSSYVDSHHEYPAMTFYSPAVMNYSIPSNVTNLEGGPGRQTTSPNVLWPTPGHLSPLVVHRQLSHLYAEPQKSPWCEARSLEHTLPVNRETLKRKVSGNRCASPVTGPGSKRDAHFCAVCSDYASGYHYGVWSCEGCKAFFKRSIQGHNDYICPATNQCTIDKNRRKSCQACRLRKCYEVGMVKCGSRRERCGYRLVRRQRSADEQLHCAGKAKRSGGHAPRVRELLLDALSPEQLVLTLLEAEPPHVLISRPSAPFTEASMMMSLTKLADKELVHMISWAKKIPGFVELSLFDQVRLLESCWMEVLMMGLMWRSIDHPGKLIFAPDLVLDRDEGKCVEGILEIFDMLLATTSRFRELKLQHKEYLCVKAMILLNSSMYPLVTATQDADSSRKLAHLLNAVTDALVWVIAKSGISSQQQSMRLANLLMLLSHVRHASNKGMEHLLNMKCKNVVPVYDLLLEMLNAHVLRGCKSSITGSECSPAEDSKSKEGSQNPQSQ
Assay: OT_ER_ERbERb_1440: Odyssey Thera (OT) 24-hour HEK293T Protein-Complementation Assay for Estrogen Receptor-beta/-beta Homodimer (AID 2283380);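 also: fluorescence gain from ER beta LBD homodimer complementation read by laser scanning cytometry; scored as signal increase over DMSO baseline for both agonists and antagonists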
Active and inactive are the calls of the source. The calls were made as follows: active = hit-call score of the fitted dose curve at least 0.9, where 1 is the maximum; inconclusive = response in the unintended direction; inactive = score below 0.9.
assayReadout: outcome

>  <compound>
CC(=O)Nc1ccc(O)cc1

>  <assayedSystem>
Estrogen receptor beta (Homo sapiens) (UniProt Q92731)

>  <result>
inactive

$$$$
>  <compound>
Cc1[nH]nc2c1N=C(c1ccccc1Cl)c1cc([N+](=O)[O-])ccc1N2

>  <assayedSystem>
Estrogen receptor beta (Homo sapiens) (UniProt Q92731)

>  <result>
inactive

$$$$
>  <compound>
Cc1ccc(S(=O)(=O)O)cc1

>  <assayedSystem>
Estrogen receptor beta (Homo sapiens) (UniProt Q92731)

>  <result>
inactive

$$$$

* * *

Assay: CCTE_Deisenroth_DEVTOX-GLR_Pluri_CellCount: Viability Assessment in CCTE's DevTox GLR-Pluri Assay Evaluation of Total Cell Counts, Deisenroth Lab (AID 2284430)
Experimental: CCTE_Deisenroth_DEVTOX-GLR_Pluri assay is a cell-based, multiplex-readout assay that uses RUES2-GLR, a human pluripotent cell line, with measurements taken at 48 hours after chemical dosing in a 384-well microplateCCTE_Deisenroth_DEVTOX-GLR_Pluri_CellCount is 1 of 4 assay components calculated from the CCTE_Deisenroth_DEVTOX-GLR_Pluri assay and it measures cell count. […]
Active and inactive are the calls of the source. The calls were made as follows: active = hit-call score of the fitted dose curve at least 0.9, where 1 is the maximum; inactive = score below 0.9.
A correct response names exactly one class from true (1) (active), false (0) (inactive)

Example results:
>  <compound>
O=C1NS(=O)(=O)c2ccccc21

>  <classLabel>
false (0)

$$$$
>  <compound>
CCCCc1oc2ccccc2c1C(=O)c1cc(I)c(OCCN(CC)CC)c(I)c1

>  <classLabel>
true (1)

$$$$

Request: Recorded call for `CN(Cc1cnc2nc(N)nc(N)c2n1)c1ccc(C(=O)N[C@@H](CCC(=O)O)C(=O)O)cc1` ?
Result: false (0)

Request: Recorded call for `CC(=O)Nc1ccc(O)cc1` ?
Result: false (0)

Request: Recorded call for `CN(C)CCOC(c1ccccc1)c1ccccc1` ?
Result: false (0)

* * *

Target: Nuclear receptor subfamily 1 group I member 2 (Homo sapiens) (UniProt O75469)
Sequence (O75469 whole entry, looked up): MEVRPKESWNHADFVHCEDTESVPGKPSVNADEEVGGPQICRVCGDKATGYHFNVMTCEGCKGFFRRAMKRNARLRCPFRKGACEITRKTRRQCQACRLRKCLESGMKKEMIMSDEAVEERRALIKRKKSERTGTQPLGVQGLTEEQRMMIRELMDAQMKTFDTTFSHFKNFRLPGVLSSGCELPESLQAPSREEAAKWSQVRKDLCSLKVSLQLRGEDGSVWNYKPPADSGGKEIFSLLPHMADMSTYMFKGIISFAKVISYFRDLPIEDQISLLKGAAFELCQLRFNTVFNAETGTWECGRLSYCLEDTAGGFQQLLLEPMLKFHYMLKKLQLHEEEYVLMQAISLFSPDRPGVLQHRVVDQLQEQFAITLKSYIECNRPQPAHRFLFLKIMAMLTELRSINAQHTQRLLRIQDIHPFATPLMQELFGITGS
Test: ATG_PXR_TRANS: Attagene TRANS-FACTORIAL HepG2 Assay for human Pregnane X Receptor (PXR) (AID 2283008)
Inconclusive results are not listed. Activity calls are given as the source filed them. How the source made its calls: active means hit-call score of the fitted dose curve at least 0.9, where 1 is the maximum; inconclusive means response in the unintended direction; inactive means score below 0.9.
A correct response names exactly one class from active, inactive

>  <compound>
O=CC(F)(F)C(F)(F)C(F)(F)C(F)F

>  <classLabel>
inactive

$$$$

Request: Recorded call for `O=C(Nc1cccc([N+](=O)[O-])c1)c1cc2ccccc2cc1O` ?
Result: active

Request: Recorded call for `O=S(=O)(O)c1ccc2cc(O)ccc2c1` ?
Result: inactive

* * *

Target: Hypoxia-inducible factor 1-alpha (Homo sapiens) (UniProt Q16665)
Sequence (Q16665 whole entry, looked up): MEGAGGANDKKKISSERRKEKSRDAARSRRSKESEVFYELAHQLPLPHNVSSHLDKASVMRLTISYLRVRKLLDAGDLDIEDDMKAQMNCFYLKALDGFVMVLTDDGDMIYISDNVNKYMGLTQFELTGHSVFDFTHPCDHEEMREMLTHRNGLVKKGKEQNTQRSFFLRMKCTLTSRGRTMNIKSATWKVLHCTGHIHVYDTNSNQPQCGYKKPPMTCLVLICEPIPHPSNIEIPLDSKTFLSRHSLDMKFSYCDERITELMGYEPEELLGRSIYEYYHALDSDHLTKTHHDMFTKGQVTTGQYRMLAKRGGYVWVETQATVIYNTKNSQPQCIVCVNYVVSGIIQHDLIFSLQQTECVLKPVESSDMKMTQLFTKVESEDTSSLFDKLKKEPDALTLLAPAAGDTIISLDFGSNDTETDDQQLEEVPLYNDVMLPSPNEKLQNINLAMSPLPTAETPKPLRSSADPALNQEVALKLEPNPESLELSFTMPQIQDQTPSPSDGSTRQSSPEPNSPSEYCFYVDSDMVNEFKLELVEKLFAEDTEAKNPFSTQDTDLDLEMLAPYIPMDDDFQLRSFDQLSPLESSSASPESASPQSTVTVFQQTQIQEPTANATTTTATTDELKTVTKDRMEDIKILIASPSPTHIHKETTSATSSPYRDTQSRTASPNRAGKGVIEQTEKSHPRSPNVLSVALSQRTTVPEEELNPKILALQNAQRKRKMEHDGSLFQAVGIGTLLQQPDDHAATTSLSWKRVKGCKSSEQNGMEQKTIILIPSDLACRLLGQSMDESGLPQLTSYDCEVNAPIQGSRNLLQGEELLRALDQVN
Assay: ATG_HIF1a_CIS: Attagene CIS-FACTORIAL HepG2 Assay for human Hypoxia Inducible Factor 1 (HIF1A) (AID 2282951)
Details: HepG2 Attagene cis-factorial HIF1a reporter transcription; actives raise or lower the signal
Calls of active or inactive are those of the source. How the source made its calls: active means hit-call score of the fitted dose curve at least 0.9, where 1 is the maximum; inactive means score below 0.9.
A correct response names exactly one class from true (active), false (inactive)

Example results:
>  <compound>
CCCCCCCCC1CCC(=O)O1 (stereo not drawn)

>  <classLabel>
false

$$$$
>  <compound>
Brc1cc(Br)c(Oc2c(Br)cc(Br)c(Br)c2Br)cc1Br

>  <classLabel>
false

$$$$
>  <compound>
Cc1ccc(N=Nc2c(O)ccc3ccccc23)c(C)c1

>  <classLabel>
true

$$$$
>  <compound>
CCCCC(CC)C(=O)OCCOCCOCCOCCOC(=O)C(CC)CCCC (stereo not drawn)

>  <classLabel>
false

$$$$
>  <compound>
CCCCCCCCCCCCCCCC(=O)OC

>  <classLabel>
false

$$$$
>  <compound>
CC(C)(C)C1CCCCC1O (stereo not drawn)

>  <classLabel>
false

$$$$
>  <compound>
O=C1Cc2ccccc2N1c1c(Cl)cccc1Cl

>  <classLabel>
true

$$$$
>  <compound>
CCC(C)c1nccnc1OC (stereo not drawn)

>  <classLabel>
false

$$$$
>  <compound>
CCC(=O)C=Cc1ccc(OC)cc1

>  <classLabel>
true

$$$$
>  <compound>
CC[N+](CC)(CC)Cc1ccccc1

>  <classLabel>
false

$$$$

Request: Recorded call for `COc1cccc(O)c1` ?
Result: false

Request: Recorded call for `CN(CCO)S(=O)(=O)C(F)(F)C(F)(F)C(F)(F)C(F)(F)C(F)(F)C(F)(F)C(F)(F)C(F)(F)F` ?
Result: false

Request: Recorded call for `CCc1cccc(CC)c1NC(=O)C(=O)O` ?
Result: false

* * *

Target: Retinoic acid receptor alpha (Homo sapiens) (UniProt P10276)
Sequence (P10276 whole entry, looked up): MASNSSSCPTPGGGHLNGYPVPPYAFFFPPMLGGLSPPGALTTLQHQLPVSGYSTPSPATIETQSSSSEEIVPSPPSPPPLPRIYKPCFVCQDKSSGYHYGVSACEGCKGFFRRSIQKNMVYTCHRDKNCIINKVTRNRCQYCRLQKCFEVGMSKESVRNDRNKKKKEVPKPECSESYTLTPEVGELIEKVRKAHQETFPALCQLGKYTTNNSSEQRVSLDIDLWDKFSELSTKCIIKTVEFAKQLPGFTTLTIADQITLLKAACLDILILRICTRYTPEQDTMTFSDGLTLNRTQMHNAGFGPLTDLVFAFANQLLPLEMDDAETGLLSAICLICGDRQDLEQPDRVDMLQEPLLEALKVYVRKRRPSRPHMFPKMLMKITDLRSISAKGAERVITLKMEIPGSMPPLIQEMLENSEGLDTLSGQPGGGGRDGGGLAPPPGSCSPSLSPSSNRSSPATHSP
Assay: ATG_DR5_RAR_CIS: Attagene CIS-FACTORIAL HepG2 Assay for human Retinoic Acid Receptor Alpha (RARE), DR5 submotif (AID 2282934)
Settings: HepG2 Attagene cis-factorial RARE DR5 reporter, mRNA; actives raise or lower the signal
Calls of active or inactive are those of the source. The calls were made as follows: active = hit-call score of the fitted dose curve at least 0.9, where 1 is the maximum; inactive = score below 0.9.
assayReadout: outcome

# example entries with known answers
>  <molecule>
CCCCCCCCCCCC

>  <outcome>
inactive

$$$$
>  <molecule>
O=C1OC(=O)C(F)(F)C1(F)F

>  <outcome>
inactive

$$$$
>  <molecule>
Cc1cncc(C)c1

>  <outcome>
inactive

$$$$
>  <molecule>
CC1CNCC(C)O1 (stereo not given)

>  <outcome>
inactive

$$$$
>  <molecule>
Cc1ccc(C)c(S(=O)(=O)O)c1

>  <outcome>
inactive

$$$$
>  <molecule>
CCCCCCCCC(C)=O

>  <outcome>
inactive

$$$$

Provide reported outcome for each item, in the same order as listed.
1. O=C1OC(=O)c2cc(-c3ccc4c(c3)C(=O)OC4=O)ccc21
2. C=CC(=O)OCCN(CC)CC
3. COC(=O)C(F)(F)C(F)(F)C(F)(F)F
4. CC(C)[C@@H]1CC[C@@H](C)C[C@H]1O
5. Oc1c(Cl)ccc(Cl)c1Cl

Result:
1: inactive; 2: inactive; 3: inactive; 4: inactive; 5: inactive

* * *

Read-out: Transforming Growth Factor (TGFB1), TGFB1 (gene 7040)
Experiment: LTEA_HepaRG_TGFB1: Life Technologies and Expression Analysis (LTEA) Assay for Transforming Growth Factor (TGFB1) Transporter using HepaRG (AID 2283533)
Conditions: mRNA level, 48 h; actives raise or lower the signal
The source made the active and inactive calls. How the source made its calls: active means hit-call score of the fitted dose curve at least 0.9, where 1 is the maximum; inactive means score below 0.9.
A correct response names exactly one class from active, inactive

>  <compound>
CN(Cc1cnc2nc(N)nc(N)c2n1)c1ccc(C(=O)N[C@@H](CCC(=O)O)C(=O)O)cc1

>  <classLabel>
inactive

$$$$
>  <compound>
O=C(c1ccccc1)c1ccccc1

>  <classLabel>
inactive

$$$$
>  <compound>
CCCCC(CC)C(=O)O (centres undefined)

>  <classLabel>
inactive

$$$$
>  <compound>
N=C(N)c1ccc(OCCCCCOc2ccc(C(=N)N)cc2)cc1

>  <classLabel>
active

$$$$
>  <compound>
CCCCC=O

>  <classLabel>
inactive

$$$$
>  <compound>
CC(=O)Nc1ccc(O)cc1

>  <classLabel>
inactive

$$$$

Request: Recorded call for `Cc1[nH]nc2c1N=C(c1ccccc1Cl)c1cc([N+](=O)[O-])ccc1N2` ?
Result: active

Request: Recorded call for CCC(C)c1ccccc1O (centres undefined) ?
Result: inactive

Request: Recorded call for `CS(=O)(=O)c1ccc([C@@H](CC2CCCC2)C(=O)Nc2cnccn2)cc1Cl` ?
Result: active

Request: Recorded call for `CCCCCCCCCCCCCCC` ?
Result: inactive

Request: Recorded call for `O=C(CCCN1CCC(O)(c2ccc(Cl)cc2)CC1)c1ccc(F)cc1` ?
Result: active

Request: Recorded call for `CCCCc1oc2ccccc2c1C(=O)c1cc(I)c(OCCN(CC)CC)c(I)c1` ?
Result: inactive

Request: Recorded call for `CCCCCCCCCCCCOS(=O)(=O)O` ?
Result: active

Request: Recorded call for `CN(C)CCOC(c1ccccc1)c1ccccc1` ?
Result: inactive

* * *

Molecular target: CCAAT/enhancer-binding protein beta (Homo sapiens)
Assay: ATG_C_EBP_CIS: Attagene CIS-FACTORIAL HepG2 Assay for human CCAAT/Enhancer Binding Protein (C/EBP) beta (AID 2282927)
Conditions: HepG2 Attagene cis-factorial transcription factor reporter; actives raise or lower the signal
Activity calls are given as the source filed them. Rule for the calls: active = hit-call score of the fitted dose curve at least 0.9, where 1 is the maximum; inactive = score below 0.9.
assayReadout: outcome

# example entries with known answers
>  <compound>
CCC(C)c1nccnc1OC (stereo not given)

>  <outcome>
inactive

$$$$
>  <compound>
O=C1C=CC(=O)N1c1cccc(N2C(=O)C=CC2=O)c1

>  <outcome>
inactive

$$$$
>  <compound>
CCCCCCc1ccc(N)cc1

>  <outcome>
inactive

$$$$
>  <compound>
Clc1ccc2c(Cl)ccnc2c1

>  <outcome>
inactive

$$$$

Provide reported outcome for each item, in the same order as listed.
1. CCCCCCCCCC=CCC1CC(=O)OC1=O (stereo not given)
2. Cc1[nH]nc2c1N=C(c1ccccc1Cl)c1cc([N+](=O)[O-])ccc1N2
3. CCCCCCCCCCCCCC[n+]1ccccc1
4. NCCN
5. CCCCC=O

Result:
["inactive", "inactive", "inactive", "inactive", "inactive"]

Kindly note the recorded outcome for CCC1CO1 (stereo not given) , which is inactive
